Origin of the recorded values: patent US20220177587A1

Below, each entry is listed alongside its reported PD-L1 MFI at 33.3 nM.
Target: huPD-L1 (Homo sapiens, UniProt Q9NZQ7)
Sequence (Q9NZQ7 19-290): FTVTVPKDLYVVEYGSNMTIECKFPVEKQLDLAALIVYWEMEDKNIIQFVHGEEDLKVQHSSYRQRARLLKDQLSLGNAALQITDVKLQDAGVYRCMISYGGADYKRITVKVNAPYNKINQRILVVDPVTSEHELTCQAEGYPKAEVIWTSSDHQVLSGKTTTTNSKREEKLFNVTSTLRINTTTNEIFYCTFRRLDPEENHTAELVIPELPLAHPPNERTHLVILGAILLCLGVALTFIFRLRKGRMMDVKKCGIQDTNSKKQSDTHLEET
Assay: Flow binding to CHO cells stably expressing PD-L1
Set-up: huCTLA4 and huPD-L1, full-length mammalian surface expression constructs were generated; expressed in transfected cells; host or cells: CHO cells, lentiviral transduction, sorted to >98% purity
Conditions: Table E19; CHO cells stably expressing PD-L1; 33.3 nM
Returns: the value as a bare number; no unit string appended.

- molecule: "E35D/M47L/V68M/L85Q (protein) VIHVTKEVKEVATLSCGHNVSVEELAQTRIYWQKDKKMVLTMMSGDLNIWPEYKNRTIFDITNNLSIMILALRPSDEGTYECVVQKYEKDAFKREHLAEVTLSVKAD"
  recorded.result: 15307

Here's the next entry for you.
Which PD-L1 MFI at 33.3 nM value belongs to E35D/M47L/V68M (protein) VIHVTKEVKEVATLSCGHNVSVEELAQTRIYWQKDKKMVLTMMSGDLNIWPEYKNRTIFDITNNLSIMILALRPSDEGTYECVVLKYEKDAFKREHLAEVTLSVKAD ? 27896
